Molecular target: T1, human PD-L1 (hPD-L1) expressed on transfected 300.19 cells (human, UniProt Q9NZQ7 19-290)
T1 construct: whole, on cells; also called B7H1
T1 sequence (Q9NZQ7 19-290): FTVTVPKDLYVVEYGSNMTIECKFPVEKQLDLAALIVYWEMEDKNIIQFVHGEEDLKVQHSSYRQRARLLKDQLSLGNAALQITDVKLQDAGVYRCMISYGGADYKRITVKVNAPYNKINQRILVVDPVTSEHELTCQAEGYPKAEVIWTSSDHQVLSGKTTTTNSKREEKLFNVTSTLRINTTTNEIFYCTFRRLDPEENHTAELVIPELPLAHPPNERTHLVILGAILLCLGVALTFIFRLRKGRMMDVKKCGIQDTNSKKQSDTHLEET
Test: FACS, hPD-L1 300.19 cells, assay 2, Ab approx 10 ug/ml
measurementName: Cells PE-A Mean (MFI)
Report the value in MFI with no unit label.

Task: Give the measured Cells PE-A Mean of Ab-52 (antibody, V domains shown, also called huPD-L1 Ab # 52) VH: QVQLQESGGGVVQPGRSLRLSCSASGFTFSRHGMHWVRQAPGKGLEWVAVISHDGSVKYYADSMKGRFSISRDNSNNTLYLQMDSLRADDTAVYYCARGLSYQVSGWFDPWGQGTLVTVSS VL: NFMLTQPHSVSESPGKTVTISCTRSSGSIASNYVQWYQQRPGSAPTTVIYEDNQRPSGVPDRFSGSIDSSSNSASLTISGLKTEDEADYYCQSYDSTTPSVFGGGTKLTVL .
Result: 37200
